molecular target: hSSB2-dIDR (Homo sapiens, UniProt Q96AH0 1-100); experiment: fluorescence anisotropy; no MgCl2; Hill n 2.4; Anisotropy: standard LLPS buffer without MgCl2 (50 mM KCl standard), 25 C, 10 nM probe; EMSA: standard LLPS buffer (50 mM KCl, 10 mM MgCl2), 50 nM probe, 1% agarose; buffer species and pH not in the material; settings: protein: recombinant; tags: His (terminus not clearly stated); label: 3'-fluorescein; single strand
Sequence (Q96AH0 1-100): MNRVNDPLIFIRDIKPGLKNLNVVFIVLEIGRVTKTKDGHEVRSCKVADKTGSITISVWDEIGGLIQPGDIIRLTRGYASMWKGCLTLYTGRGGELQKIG
metric: pKd
Keep in mind that pKd stands for -log10 of concentration in molar terms.

IN: Give pKd for the following binder: ss54 DNA (ssDNA) DNA: TCCTTTTGATAAGAGGTCATTTTTGCGGATGGCTTAGAGCTTAATTGCGCAACG
OUT: 6.07
